Provide the recorded Relative Affinity (a) compared to folic acid for the entries that follow.
- MEASURED_TARGET: folate receptors (FRs) on KB cells (Homo sapiens)
- Construct: FR-positive KB cells are heavily seeded into 24-well cell culture plates; endogenous in cells; host or cells: KB cells
- Sequence (P15328 25-234): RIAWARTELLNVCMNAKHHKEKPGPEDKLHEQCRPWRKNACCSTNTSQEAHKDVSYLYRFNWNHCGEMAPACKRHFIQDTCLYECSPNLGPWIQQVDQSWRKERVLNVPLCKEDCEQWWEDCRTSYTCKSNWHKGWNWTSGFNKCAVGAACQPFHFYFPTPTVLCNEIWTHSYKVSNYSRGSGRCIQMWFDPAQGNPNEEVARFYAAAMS
- METHOD: Relative affinity assay (3H-folic acid competition) on KB cells
- Assay type: binding
- CONDITION_SET: folic acid = 1; in 10% serum/FDRPMI
Form rule: numeric answer, no unit written next to it.

input: Quick one: Relative Affinity (a) compared to folic acid of CCCC(=O)OCN(C(=O)[C@@H](NC(=O)[C@H]1CCCCN1C)C(C)CC)[C@H](C[C@@H](OC(C)=O)c1nc(C(=O)N[C@@H](Cc2ccc(O)cc2)C[C@H](C)C(=O)NNC(=O)OCCSSC[C@@H](NC(=O)[C@H](CC(=O)O)NC(=O)[C@H](CC(=O)O)NC(=O)[C@H](CCCNC(=N)N)NC(=O)[C@H](CC(=O)O)NC(=O)CC[C@H](NC(=O)c2ccc(NCc3cnc4nc(N)[nH]c(=O)c4n3)cc2)C(=O)O)C(=O)O)cs1)C(C)C (stereo partly shown) [EC1548] ?
output: 0.23

input: Given the compound CCCC(=O)OCN(C(=O)[C@@H](NC(=O)[C@H]1CCCCN1C)C(C)CC)C(C[C@@H](OC(C)=O)c1nc(C(=O)N[C@@H](Cc2ccc(O)cc2)C[C@H](C)C(=O)NNC(=O)OCCSSC[C@@H](NC(=O)[C@@H](CC(=O)O)NC(=O)[C@H](CC(=O)O)NC(=O)[C@H](CCCNC(=N)N)NC(=O)[C@H](CC(=O)O)NC(=O)CC[C@H](NC(=O)c2ccc(NCc3cnc4nc(N)[nH]c(=O)c4n3)cc2)C(=O)O)C(=O)O)cs1)C(C)C (stereo partly shown) [EC1549] , what is its reported Relative Affinity (a) compared to folic acid?
output: 0.90

input: Can you look up the measured Relative Affinity (a) compared to folic acid of CCCC(=O)OCN(C(=O)[C@@H](NC(=O)[C@H]1CCCCN1C)C(C)CC)[C@H](C[C@@H](OC(C)=O)c1nc(C(=O)N[C@@H](Cc2ccc(O)cc2)C[C@H](C)C(=O)NNC(=O)OCCSSC(C)(C)[C@@H](NC(=O)[C@@H](CC(=O)O)NC(=O)[C@@H](CC(=O)O)NC(=O)[C@@H](CCCNC(=N)N)NC(=O)[C@@H](CC(=O)O)NC(=O)CC[C@@H](NC(=O)c2ccc(NCc3cnc4nc(N)[nH]c(=O)c4n3)cc2)C(=O)O)C(=O)O)cs1)C(C)C (stereo partly shown) [EC1393] for me?
output: 0.25

input: Given the compound CCCC(=O)OCN(C(=O)[C@@H](NC(=O)[C@H]1CCCCN1C)C(C)CC)[C@H](C[C@@H](OC(C)=O)c1nc(C(=O)N[C@@H](Cc2ccc(O)cc2)C[C@H](C)C(=O)NNC(=O)OCCSSC[C@@H](NC(=O)[C@@H](CC(=O)O)NC(=O)[C@@H](CC(=O)O)NC(=O)[C@@H](CCCNC(=N)N)NC(=O)[C@@H](CC(=O)O)NC(=O)CC[C@@H](NC(=O)c2ccc(NCc3cnc4nc(N)[nH]c(=O)c4n3)cc2)C(=O)O)C(=O)O)cs1)C(C)C (stereo partly shown) [EC1299] , what is its reported Relative Affinity (a) compared to folic acid?
output: 0.29
